substrate: pcPET (post-consumer); assay: Proxy for plastic degradation [Released monomer concentration (HPLC/LC-MS) (TPA+MHET+BHET)]; details: pH 9; 40 °C; 24 h
OBSERVATION_TYPE: Proxy for plastic degradation
Reply with the number, then its unit.

PROTEIN: unnamed (protein) MLSFLRSTGRPERRRASLPALLLFTAALVASGLTAAPAAQAADNPYQRGPDPTNASIEAATGPFAVGTQPIVGASGFGGGQIYYPTDTSQTYGAVVIVPGFTSVWAQLNWLGPRLASQGFVVIGIETSVITDLPDPRGDQALAALDWATTRSPVASRIDRTRLAAAGWSMGGGGLRRAALQRPSLKAIVGMAPWNGERNWSAVTVPTLFFGGSSDAVASPNDHAKPFYNSITRAEKDYIELRNADHFFPTSANTTMAKYFISWLKRWVDNDTRYTQFLCPGPSTGLFAPVSASMNTCPF
OBSERVATION_TYPE: Proxy for plastic degradation
RESULT: 560 µM

May I ask what Proxy for plastic degradation has been recorded for unnamed (protein) MLSFLRSTGRPERRRASLPALLLFTAALVASGLTAAPAAQAADNPYQRGPDPTNASIEAATGPFAVGTQPIVGASGFGGGQIYYPTDTSQTYGAVVIVPGFISVWAQLNWLGPRLASQGFVVIGIETSVITDLPDPRGDQALAALDWATTRSPVASRIDRTRLAAAGWSMGGGGLRRAALQRPSLKAIVGMAPWNGERNWSAVTVPTLFFGGSSDAVASPNDHAKPFYNSITRAEKDYIELRNADHFFPTSANTTMSKYFISWLKRWVDNDTRYTQFLCPGPSTGLFAPVSASMNTCPF ?
530 µM
